conditions: 353.15 K; 101.33 kPa; Liquid
Entries and their viscosity values follow.
Only the number, expressed in mPa·s, is required.

Worked cases, viscosity given:
CCCCCCCCCCCCCCCCCCCC(=O)OC [methyl eicosanoate] ... 2.674
CCCCCCCCCCCCCCCCCCCC(=O)OCC [ethyl eicosanoate] ... 2.78

Okay, now this compound:
Would you mind telling me what viscosity value was observed for CCCCCCCC/C=C\CCCCCCCCCCCC(=O)OC [methyl (Z)-13-docosenoate] ? 2.707
